Answer each item with its documented protein stability index.
B1: COX4I1 (parent)
chain: VAHVKHLSASQKALKEKEKASWSS

variants of: B1; test: protein stability index of a GFP-peptide fusion (GPS, HEK-293T) (PSI 1-6); higher = more stable; details: c terminus: a fixed tail appended;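 also: lentivirally expressed fusions sorted by FACS into six bins by GFP to DsRed ratio, PSI derived from sequencing read proportions per bin multiplied by bin number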
Number only, please.

input: Entry under review: H6Y . Reported protein stability index?
output: 2.5

input: S21V ?
output: 3.96

input: // query: L14G
output: 3.1

input: Now the variant L14A
output: 3.2

input: For S10M then?
output: 2.94

input: What about this variant? S10K
output: 2.66

input: Param item: H6P
output: 3.98

input: # repeat for L7C
output: 3.47

input: Next record, please: K19P
output: 3.63

input: Entry K12D please
output: 3.88

input: Repeat for the following variant: Q11L
output: 2.96

input: Query W22F next
output: 4.6

input: Another variant to look at: V4C
output: 3.34

input: Moving on to S24V
output: 3.15

input: How about this variant: Q11I
output: 2.94

input: Also K17G , if possible.
output: 3.86

input: And for L7D ?
output: 4.03

input: Moving on to L14V
output: 3.38

input: Next entry: K12W
output: 2.69

input: Repeat for the following variant: E18V
output: 2.59

input: Input K15D
output: 3.96

input: Cool, now A2D
output: 3.6
